± gives the standard deviation of the reports.
Provide the recorded glass transition temperature for the entries that follow.
Returns: string containing the numeric result and its unit.

Query: // glass transition temperature lookup, key: *C(=S)Nc1ccc(Oc2ccc(NC(=S)N3C(=O)c4ccc(C(=O)c5ccc6c(c5)C(=O)N(*)C6=O)cc4C3=O)cc2)cc1 (repeat unit)
Result: 262.00 °C

Query: Endpoint output: glass transition temperature of *C(=O)c1ccc2c(c1)C(=O)N(c1cccc(Cc3ccc(C(=O)c4ccc(N5C(=O)c6ccc(*)cc6C5=O)cc4)cc3)c1)C2=O (repeat unit) . Value?
Result: 254.00 °C

Query: Dear colleague, I am looking for the recorded glass transition temperature of the following compound: *c1ccc(*)cc1 (repeat unit) [Poly(1,4-phenylene)]
Result: 278.18 ± 19 °C

Query: Field request: glass transition temperature | item: *CC(*)(C)C(=O)Oc1ccc(C(=O)Oc2ccc(C(=O)c3ccccc3)cc2)cc1 (repeat unit)
Result: 72.00 °C

Query: Name the reported glass transition temperature value associated with the compound *O[Si](*)(C)CCCCCCCCCCC(=O)Oc1ccc(C(=O)Oc2ccc(OC(=O)CCCCC(=O)OC3CC(C)CCC3C(C)C)cc2)cc1 (repeat unit)
Result: 20.70 °C

Query: Data request, read-out glass transition temperature, for *c1cc(C)c(-c2c(C)cc(N3C(=O)c4ccc(-c5ccc6c(c5)C(=O)N(*)C6=O)cc4C3=O)cc2C)c(C)c1 (repeat unit)
Result: 280.00 °C

Query: Value lookup for glass transition temperature; key = *Oc1ccc(S(=O)(=O)c2ccc(Oc3ccc(C4(c5ccc(Oc6ccc(S(=O)(=O)c7ccc(Oc8ccc(/C=C9\CCC/C(=C\c%10ccc(*)cc%10)C9=O)cc8)cc7)cc6)cc5)CCCCC4)cc3)cc2)cc1 (repeat unit)
Result: 190.00 °C

Query: # get_value(readout='glass transition temperature', item= *c1c(C)cc(-c2cc(C)c(N3C(=O)c4ccc(S(=O)(=O)c5ccc6c(c5)C(=O)N(*)C6=O)cc4C3=O)c(C)c2)cc1C (repeat unit) )
Result: 290.00 °C

Query: Dear colleague, I am looking for the recorded glass transition temperature of the following compound: *CCCCCNC(=O)Cc1ccc(C(=O)N*)cc1 (repeat unit)
Result: 103.00 °C

Query: Please report the recorded glass transition temperature for *CC(*)C(C)=O (repeat unit) .
Result: 115.00 °C

====

I'd appreciate it if you could supply glass transition temperature values for the items below.
Give the value, in units of °C, as a plain number.

Query: Give its glass transition temperature value. Item: *c1ccc(Oc2cc3ccccc3cc2Oc2ccc(N3C(=O)c4ccc(Oc5ccc6c(c5)C(=O)N(*)C6=O)cc4C3=O)cc2)cc1 (repeat unit)
Result: 275.50

Query: Please look up its glass transition temperature: *CC1CC(*)C(OC(=O)CCCCCCCCCCOc2ccc(-c3ccc(C#N)cc3)cc2)C1 (repeat unit)
Result: 30.50

Query: Looking for the measured glass transition temperature of *C(=O)Nc1ccc(C(=O)c2ccc(NC(=O)c3ccc4c(c3)C(=O)N(c3cccc(P(=O)(c5ccccc5)c5cccc(N6C(=O)c7ccc(*)cc7C6=O)c5)c3)C4=O)cc2)cc1 (repeat unit) , can you help?
Result: 238.00

Query: Any idea what glass transition temperature was measured for *O[Si](*)(C)CCCCCCOc1ccc(C(=O)Oc2ccc(C#N)cc2C)cc1 (repeat unit) ?
Result: 45.00

Query: Dear colleague, I am looking for the recorded glass transition temperature of the following compound: *CC(*)(C)C(=O)OCCCN(CCO)c1ccc(/N=N/c2ccc([N+](=O)[O-])cc2)cc1 (repeat unit)
Result: 131.00

Query: What value of glass transition temperature has been reported for the following compound? *C(=O)Nc1ccc(S(=O)(=O)c2ccc(NC(=O)c3ccc4c(c3)C(=O)N(c3ccc(S(=O)(=O)c5ccc(N6C(=O)c7ccc(*)cc7C6=O)cc5)cc3)C4=O)cc2)cc1 (repeat unit)
Result: 307.00

Query: Could you share which glass transition temperature value was measured for *CC(c1ccccc1)C1C(=O)N(CCCCCCCCCCCC)C(=O)C1* (repeat unit) ?
Result: 70.00

Query: Given the compound *c1cccc(C(c2ccccc2)(c2cccc(N3C(=O)c4ccc(Oc5ccc6c(c5)C(=O)N(*)C6=O)cc4C3=O)c2)C(F)(F)F)c1 (repeat unit) , what is its reported glass transition temperature?
Result: 293.00

Query: Consider the compound shown here: *OP(=O)(Oc1ccc(OC)cc1)Oc1c(Br)cc(C(c2cc(Br)c(*)c(Br)c2)(C(F)(F)F)C(F)(F)F)cc1Br (repeat unit) What is its recorded glass transition temperature?
Result: 151.00

Query: Any idea what its glass transition temperature is? The compound is *C1C(=O)N(CCCCCOc2ccc(-c3ccc(C#N)cc3)cc2)C(=O)C1* (repeat unit)
Result: 75.00

Query: // returns reported glass transition temperature for input *CC(*)(C)C(=O)OCC (repeat unit) [Poly(1-(Diethylamino)ethyl methacrylate)]
Result: 20

Query: Look up glass transition temperature: *Oc1ccc(Oc2ccc(NC(=O)c3ccc(Oc4ccc(Oc5ccc(C(=O)Nc6ccc(*)cc6)cc5)cc4)cc3)cc2)cc1 (repeat unit)
Result: 236.00

Query: Which measured glass transition temperature value corresponds to *c1ccc2c(c1)Sc1cc(-c3ccc(-c4ccc(*)s4)s3)ccc1N2CCCCCC (repeat unit) ?
Result: 140.00

Query: For *c1ccc(Oc2ccc(Oc3ccc(N4C(=O)c5ccc(Oc6ccc(C7(c8ccc(Oc9ccc%10c(c9)C(=O)N(*)C%10=O)cc8)CCC(C(C)(C)C)CC7)cc6)cc5C4=O)cc3)c(C(C)(C)C)c2)cc1 (repeat unit) , what is its reported glass transition temperature?
Result: 233.00

Query: For *Oc1ccc(S(=O)(=O)c2ccc(Oc3c(C)cc(C(c4cc(C)c(*)c(C)c4)(C(F)(F)F)C(F)(F)F)cc3C)cc2C(OC)(C(F)(F)F)C(F)(F)F)c(C(OC)(C(F)(F)F)C(F)(F)F)c1 (repeat unit) , what is its reported glass transition temperature?
Result: 163.00

Query: For the compound shown here, *c1ccc2c(c1)C(=O)N(c1ccc(-c3ccc(N4C(=O)c5ccc(C(*)(c6ccccc6)C(F)(F)F)cc5C4=O)cc3C(F)(F)F)c(C(F)(F)F)c1)C2=O (repeat unit) , give the reported glass transition temperature.
Result: 280.00

Query: Entry *C(=O)Nc1ccc(Oc2ccc(C(c3ccc(Oc4ccc(NC(=O)c5ccc6c(c5)C(=O)N(c5ccc(Oc7ccc(C8(c9ccc(Oc%10ccc(N%11C(=O)c%12ccc(*)cc%12C%11=O)cc%10)cc9)CC9CC8C8CCCC98)cc7)cc5)C6=O)cc4)cc3)(C(F)(F)F)C(F)(F)F)cc2)cc1 (repeat unit) has what glass transition temperature?
Result: 254.00

Query: Quick one: glass transition temperature for *CCCCOC(=O)NCCCCNC(=O)O* (repeat unit) ?
Result: 7.00

Query: So what does the record say about glass transition temperature for *CCCC1CC(=O)N(*)C(=O)C1 (repeat unit) ?
Result: 90.00

Query: For the compound *Oc1ccc(C2(c3ccc(Oc4ccc5c(=O)n6c7cc(-c8ccc9c(c8)nc8c%10ccc(*)c%11cccc(c(=O)n98)c%11%10)ccc7nc6c6cccc4c56)cc3)c3ccccc3C(=O)c3ccccc32)cc1 (repeat unit) , what glass transition temperature is on record?
Result: 428.00

Query: Please give the measured glass transition temperature for this compound: *c1ccc(-c2cc(C(C)(C)C)c(Oc3ccc(N4C(=O)c5ccc(S(=O)(=O)c6ccc7c(c6)C(=O)N(*)C7=O)cc5C4=O)cc3)c(C(C)(C)C)c2)cc1 (repeat unit)
Result: 354.50

Query: What does the record list as glass transition temperature for *Oc1cc(C)c(*)c(C)c1Br (repeat unit) ?
Result: 280.1

Query: Reported glass transition temperature for *c1ccc2c(c1)C(=O)N(c1ccc(NC(=S)/N=C/c3ccc(Cl)c(N4C(=O)c5ccc(C(*)(C(F)(F)F)C(F)(F)F)cc5C4=O)c3)cc1)C2=O (repeat unit) : what is it?
Result: 272.00

Query: Could you share which glass transition temperature value was measured for *Cc1cc(C)c(CNC(=O)CCCCC(=O)N*)cc1C (repeat unit) ?
Result: 70.00

Query: Requested field: glass transition temperature. Item: *CC(*)C(=O)NCP(=O)(O)O (repeat unit)
Result: 26.00

====

Binary classification by glass transition temperature, with 200 °C as an inclusive lower bound for TRUE; all other cases are FALSE.

Query: Assess whether reported glass transition temperature for *c1ccc(Oc2ccc(S(=O)(=O)c3ccc(Oc4ccc(N5C(=O)c6ccc(S(=O)(=O)c7ccc8c(c7)C(=O)N(*)C8=O)cc6C5=O)cc4)cc3)cc2)cc1 (repeat unit) sits at 200 °C or higher.
Result: TRUE

Query: Answer whether glass transition temperature of *c1ccc(Oc2ccc(Sc3ccc(Oc4ccc(-c5nc(*)nc(-c6ccccc6)n5)cc4)cc3)cc2)cc1 (repeat unit) is greater than or equal to 200 °C.
Result: TRUE

Query: Please indicate if the recorded glass transition temperature for *Oc1ccc(C(C)(C)c2ccc(C(C)(C)c3ccc(Oc4ccc(C(=O)Nc5ccc(NC(=O)c6ccc(*)cc6)cc5)cc4)cc3)cc2)cc1 (repeat unit) meets or exceeds 200 °C.
Result: FALSE

Query: Is it the case that *CC1CCC(CNC(=O)CCCCC(=O)N*)CC1 (repeat unit) has glass transition temperature reaching or exceeding 200 °C?
Result: FALSE

Query: Given *CCCCCCOC(=O)OCCCCCCN1C(=O)c2ccc(C(=O)c3ccc4c(c3)C(=O)N(*)C4=O)cc2C1=O (repeat unit) , state whether its glass transition temperature is at least 200 °C.
Result: FALSE

Query: Decide: glass transition temperature of *Oc1ccc(S(=O)(=O)c2ccc(Oc3c(C)cc(-c4cc(C)c(*)c(C)c4)cc3C)cc2)cc1 (repeat unit) >= 200 °C?
Result: TRUE

Query: Entry *C1CCC(CC2CCC(N3C(=O)C4C5C=CC(C6C(=O)N(*)C(=O)C56)C4C3=O)C(C)C2)CC1C (repeat unit) : is its glass transition temperature no less than 200 °C?
Result: TRUE

Query: Kindly determine if glass transition temperature recorded for *c1ccc2c(c1)C(=O)N(c1cccc(NC(=O)C(F)(F)C(F)(F)C(F)(F)C(F)(F)C(F)(F)C(F)(F)C(=O)Nc3cccc(N4C(=O)c5ccc(C(*)(C(F)(F)F)C(F)(F)F)cc5C4=O)c3)c1)C2=O (repeat unit) is above or exactly 200 °C.
Result: TRUE

Query: Please indicate if the recorded glass transition temperature for *CCCCCCCCCCCCCCCCOC(=O)NCCCCCCNC(=O)O* (repeat unit) meets or exceeds 200 °C.
Result: FALSE

Query: Form field: glass transition temperature at least 200 °C? Entry: *Oc1ccc(S(=O)(=O)c2ccc(OC(=O)c3cc(CCCCC)cc(C(*)=O)c3)cc2)cc1 (repeat unit)
Result: FALSE

Query: Check this molecule for glass transition temperature at or above 200 °C: *c1ccc(Oc2ccc(-c3nc4cc(Oc5ccc(NC(=O)c6ccc7c(c6)C(=O)N(c6ccc(C(c8ccc(N9C(=O)c%10ccc(C(=O)Nc%11ccc(Oc%12ccc%13nc(-c%14ccccc%14)c(*)nc%13c%12)cc%11)cc%10C9=O)cc8)(C(F)(F)F)C(F)(F)F)cc6)C7=O)cc5)ccc4nc3-c3ccccc3)cc2)cc1 (repeat unit)
Result: TRUE

Query: Check this molecule for glass transition temperature at or above 200 °C: *CCCCCCCN1C(=O)c2ccc(Oc3ccc4c(c3)C(=O)N(*)C4=O)cc2C1=O (repeat unit)
Result: FALSE

Query: Item *CCC(C)C(*)C (repeat unit) with glass transition temperature of 200 °C or above?
Result: FALSE

Query: Tell me whether glass transition temperature is at least 200 °C here: *Oc1ccc(C(C)(C)c2ccc(OC(=O)c3ccc(C(C)(CC)c4ccc(C(*)=O)cc4)cc3)cc2)cc1 (repeat unit)
Result: TRUE

Query: Reported glass transition temperature at or above 200 °C? *C[Si](*)(C)CCCCCC (repeat unit)
Result: FALSE

Query: Hello, I need to know if *CC(O)CN(*)c1cc(C)c(/N=N/c2ccc(C#N)cc2)c(C)c1 (repeat unit) has measured glass transition temperature not below 200 °C. Thanks!
Result: FALSE

Query: Decide: is the reported value of glass transition temperature for *Oc1cccc(NC(=O)c2ccc(Oc3ccc(C(C)(C)c4ccc(C(C)(C)c5ccc(Oc6ccc(C(=O)Nc7ccc(*)cc7)cc6)cc5)cc4)cc3)cc2)c1 (repeat unit) equal to or greater than 200 °C?
Result: FALSE

Taken from the PolyMetriX glass transition set.
